Data origin, for the record: patent US20070244048A1

EXPERIMENTAL SYSTEM: T1, rat NMUR1-ATG (rat, UniProt Q9JJI5 1-425)
T1 sequence (looked up): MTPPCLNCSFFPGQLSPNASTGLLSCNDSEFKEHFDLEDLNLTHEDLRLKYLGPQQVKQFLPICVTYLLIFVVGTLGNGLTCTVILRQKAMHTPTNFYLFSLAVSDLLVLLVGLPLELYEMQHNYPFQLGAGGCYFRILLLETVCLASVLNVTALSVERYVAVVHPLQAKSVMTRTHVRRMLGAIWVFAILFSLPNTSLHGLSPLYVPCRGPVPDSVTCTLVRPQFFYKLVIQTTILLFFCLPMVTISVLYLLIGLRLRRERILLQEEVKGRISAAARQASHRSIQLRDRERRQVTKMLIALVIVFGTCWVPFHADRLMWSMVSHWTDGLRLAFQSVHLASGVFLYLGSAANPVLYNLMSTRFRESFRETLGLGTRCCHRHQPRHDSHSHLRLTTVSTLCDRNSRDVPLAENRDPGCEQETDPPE
PROTOCOL SUMMARY: cell-based or functional assay
Starred links: 1 amine or outer side, 2 acyl side, 3 side chain; linkers in the order of their positions; H or OH if unused. Non-standard residues stand in square brackets, D forms with d. *: point of attachment. Ttds = 1-amino-4,7,10-trioxa-13-tridecanamine succinimic acid spacer, O=C(CCC(=O)[*:2])NCCCOCCOCCOCCCN[*:1]; (PEG)2 40 kDa = branched PEG of 40 kDa linked via the Cys side-chain thiol (code C2 = Cys(PEG)2 40 kDa); Succinimide(1-Et,3-yl) = CCN1C(=O)CC(*)C1=O
MEASUREMENT NAME: % Activity (FLIPR) (%)

BINDER	MEAS VALUE
Ac-C((PEG)2 40 kDa)[Ttds]FLFRPRN-NH2 [NMU16]	75.4
Ac-C(PEG 20 kDa)C(PEG 20 kDa)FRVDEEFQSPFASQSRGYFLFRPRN-NH2 [NMU23]	76.4
Ac-C((PEG)2 40 kDa)ASQSRGYFLFRPRN-NH2 [NMU18]	95.9
Ac-C(Succinimide(1-Et,3-yl))ASQSRGYFLFRPRN-NH2 (SMILES CCN1C(=O)CC(SC[C@H](NC(C)=O)C(=O)N[C@@H](C)C(=O)N[C@@H](CO)C(=O)N[C@@H](CCC(N)=O)C(=O)N[C@@H](CO)C(=O)N[C@@H](CCCNC(=N)N)C(=O)NCC(=O)N[C@@H](Cc2ccc(O)cc2)C(=O)N[C@@H](Cc2ccccc2)C(=O)N[C@@H](CC(C)C)C(=O)N[C@@H](Cc2ccccc2)C(=O)N[C@@H](CCCNC(=N)N)C(=O)N2CCC[C@H]2C(=O)N[C@@H](CCCNC(=N)N)C(=O)N[C@@H](CC(N)=O)C(N)=O)C1=O) [NMU17]	100
Ac-C(Succinimide(1-Et,3-yl))[Ttds]FLFRPRN-NH2 (SMILES CCN1C(=O)CC(SC[C@H](NC(C)=O)C(=O)NCCCOCCOCCOCCCNC(=O)CCC(=O)N[C@@H](Cc2ccccc2)C(=O)N[C@@H](CC(C)C)C(=O)N[C@@H](Cc2ccccc2)C(=O)N[C@@H](CCCNC(=N)N)C(=O)N2CCC[C@H]2C(=O)N[C@@H](CCCNC(=N)N)C(=O)N[C@@H](CC(N)=O)C(N)=O)C1=O) [NMU15]	100
Ac-C(Succinimide(1-Et,3-yl))GYFLFRPRN-NH2 (SMILES CCN1C(=O)CC(SC[C@H](NC(C)=O)C(=O)NCC(=O)N[C@@H](Cc2ccc(O)cc2)C(=O)N[C@@H](Cc2ccccc2)C(=O)N[C@@H](CC(C)C)C(=O)N[C@@H](Cc2ccccc2)C(=O)N[C@@H](CCCNC(=N)N)C(=O)N2CCC[C@H]2C(=O)N[C@@H](CCCNC(=N)N)C(=O)N[C@@H](CC(N)=O)C(N)=O)C1=O) [NMU6]	100
